experimental protocol: clinical
condition context: male, human, in vivo, CL
measured parameter: clearance (mL/min/kg)
// return numeric value only (unit: mL/min/kg, not printed)

What clearance value was documented for this compound, CC(=O)[C@H]1CC[C@H]2[C@@H]3CCC4=CC(=O)CC[C@]4(C)[C@H]3CC[C@]12C [progesterone, pregn-4-ene-3,20-dione] ?
27.7

----------
experimental protocol: Pharmacokinetics of progesterone given by intravenous infusion in TBI patients
condition context: male, human, in vivo
measured parameter: Vd (L/kg)
// return numeric value only (unit: L/kg, not printed)

What Vd value was documented for this compound, CC(=O)[C@H]1CC[C@H]2[C@@H]3CCC4=CC(=O)CC[C@]4(C)[C@H]3CC[C@]12C [progesterone, pregn-4-ene-3,20-dione] ?
1.62

----------
experimental protocol: Pharmacokinetics of progesterone given by intravenous infusion in TBI patients
condition context: female, human, in vivo
measured parameter: Vd (L/kg)
// return numeric value only (unit: L/kg, not printed)

What Vd value was documented for this compound, `CC(=O)[C@H]1CC[C@H]2[C@@H]3CCC4=CC(=O)CC[C@]4(C)[C@H]3CC[C@]12C` ?
1.33

----------
experimental protocol: clinical
condition context: both, human, in vivo, CL
measured parameter: clearance (mL/min/kg)
// return numeric value only (unit: mL/min/kg, not printed)

What clearance value was documented for this molecule, `CC(=O)[C@H]1CC[C@H]2[C@@H]3CCC4=CC(=O)CC[C@]4(C)[C@H]3CC[C@]12C` ?
28.8

----------
experimental protocol: Pharmacokinetics of progesterone given by intravenous infusion in TBI patients
condition context: male, human, in vivo, iv
measured parameter: clearance (mL/min/kg)
// return numeric value only (unit: mL/min/kg, not printed)

What clearance value was documented for this compound, `CC(=O)[C@H]1CC[C@H]2[C@@H]3CCC4=CC(=O)CC[C@]4(C)[C@H]3CC[C@]12C` ?
22.2

----------
experimental protocol: clinical
condition context: both, human, in vivo, terminal half-life
measured parameter: half-life
The answer consists of two parts: a number and, after it, its unit.

What half-life value was documented for this compound, `CC(=O)[C@H]1CC[C@H]2[C@@H]3CCC4=CC(=O)CC[C@]4(C)[C@H]3CC[C@]12C` ?
1.78 h
